test system: Lactobacillus gasseri; assay: growth AUC relative to DMSO control (median of replicates) (fraction); higher = more growth (less inhibition), active = hit call of the paper; details: 20 µM; 24 h
result-type: growth AUC
One number for each entry.

compound: C[C@@]1(c2ccccc2)NC(=O)N(Nc2ccccc2)C1=O
growth AUC: 1.05
--
compound: COC(=O)CC(NC(=O)[C@@H](NC(=O)OC(C)C)C(C)C)c1ccc(Cl)cc1 (stereo partly specified)
growth AUC: 1.01
--
compound: CCCCC(CC)COC(=O)COc1cc(Cl)c(Cl)cc1Cl (stereo unspecified)
growth AUC: 1.06
--
compound: CCc1nc2ncnn2c(N)c1CCCCCC(=O)O.Cl
growth AUC: 1.08
--
compound: CCOC(=O)CSc1nc(C(C)(C)C)nn1C(=O)N(C)C
growth AUC: 0.91

Count: 4. Required value per item: growth AUC.
1. COc1c(I)cc(C#N)cc1I
2. CCc1cccc(CC)c1N(COC)C(=O)CS(=O)(=O)[O-].[Na+]
3. COC(=O)c1cccc(C)c1S(=O)(=O)NC(=O)Nc1nc(OCC(F)(F)F)nc(N(C)C)n1
4. CCCOC(=O)NCCCN(C)C

0.895
1.05
1.05
0.951

Count: 2. Required value per item: growth AUC.
1. CC(C)COC(=O)COc1cc(Cl)c(Cl)cc1Cl
2. ClC=C(c1ccc(Cl)cc1)c1ccc(Cl)cc1

1: 0.91; 2: 0.915

---

tested on: Parabacteroides distasonis; experiment: growth AUC relative to DMSO control (median of replicates) (fraction); higher = more growth (less inhibition), active = hit call of the paper; details: 20 µM; 24 h
result-type: growth AUC
Give bare numbers.

compound: CCSc1nc(NC(C)C)nc(NC(C)C)n1
study-system: Parabacteroides distasonis
growth AUC: 1

compound: CC(C)Nc1nc(N)nc(Cl)n1
study-system: Parabacteroides distasonis
growth AUC: 1.06

compound: Cc1ccc(C(C)NC(=O)[C@@H](NC(=O)OC(C)C)C(C)C)cc1 (some centres undefined)
study-system: Parabacteroides distasonis
growth AUC: 0.917

compound: C[C@@]1(c2ccccc2)NC(=O)N(Nc2ccccc2)C1=O
study-system: Parabacteroides distasonis
growth AUC: 1.02

compound: COc1nc(N)nc(NC(C)(C)C)n1
study-system: Parabacteroides distasonis
growth AUC: 1

Count: 5. Required value per item: growth AUC.
1. COC1CCC2(CC1)NC(=O)C(O)(c1cc(C)ccc1C)C2=O (centres undefined)
2. COc1cc(OC)nc(NC(=O)NS(=O)(=O)c2c(-c3nnn(C)n3)cnn2C)n1
3. Oc1cccc2ccccc12
4. CCNc1nc(NC(C)(C)C)nc(OC)n1
5. CC(=O)Nc1cc(NS(=O)(=O)C(F)(F)F)c(C)cc1C

1: 1.02; 2: 0.845; 3: 0.983; 4: 1.07; 5: 1.05

---

Please provide measured growth AUC for the entries that follow.
system: Bacteroides stercoris; assay: growth AUC relative to DMSO control (median of replicates) (fraction); higher = more growth (less inhibition), active = hit call of the paper; conditions: 20 µM; 24 h
Answers are plain numbers.

compound: COC(=O)c1ccc(C(F)(F)F)nc1S(=O)(=O)[N-]C(=O)Nc1nc(OC)cc(OC)n1.[Na+]
growth AUC: 0.908
//
compound: Cc1cc(N(C)C)nc(Cl)n1
growth AUC: 1.26
//
compound: Cc1cccc(C)c1N(CCSCC(O)C(=O)[O-])C(=O)CO.[Na+] (stereo not given)
growth AUC: 1.01
//
compound: COc1nc(C)nc(NC(=O)NS(=O)(=O)c2ccccc2OCCCl)n1
growth AUC: 1.02
//
compound: N#Cc1ccccc1NC(=O)c1snc(Cl)c1Cl
growth AUC: 1.15

Count: 5. Required value per item: growth AUC.
1. CCOC(=O)Nc1cccc(OC(=O)Nc2cccc(C)c2)c1
2. Nc1ccc(O)cc1
3. COC(=O)[C@@H](C)Oc1ccc(Oc2ncc(C(F)(F)F)cc2Cl)cc1
4. Cc1cc(C)cc(O)c1
5. CCc1cccc(C)c1N(C(=O)C(=O)O)C(C)COC (stereo not given)

1: 0.932; 2: 1.11; 3: 1.16; 4: 1; 5: 1.1

Count: 7. Required value per item: growth AUC.
1. C/C=C/C(=O)Oc1c(C(C)CCCCCC)cc([N+](=O)[O-])cc1[N+](=O)[O-] (mixture of isomers)
2. CSC(=O)c1cccc2nnsc12
3. c1ccc(Sc2ccccc2)cc1
4. N#Cc1cc(Cl)c(O)c(Cl)c1
5. O=C(O)CCCc1c[nH]c2ccccc12
6. N#CC(=NOCC1OCCO1)c1ccccc1
7. CC1COc2ccccc2N1C(=O)C(Cl)Cl (stereo not given)

[0.0105, 1.07, 1.05, 0.935, 0.994, 1.06, 0.945]
